system: T1, Human IL-1Rrp2/IL-1R6 protein, His Tag (ACROBiosystems, IL2-H52H6) (human, UniProt Q9HB29 20-335)
T1 construct: Bought protein; the soluble protein is likely only the extracellular part; also called hIL-36R; human IL36R antigen; not shown: His tag
T1 sequence: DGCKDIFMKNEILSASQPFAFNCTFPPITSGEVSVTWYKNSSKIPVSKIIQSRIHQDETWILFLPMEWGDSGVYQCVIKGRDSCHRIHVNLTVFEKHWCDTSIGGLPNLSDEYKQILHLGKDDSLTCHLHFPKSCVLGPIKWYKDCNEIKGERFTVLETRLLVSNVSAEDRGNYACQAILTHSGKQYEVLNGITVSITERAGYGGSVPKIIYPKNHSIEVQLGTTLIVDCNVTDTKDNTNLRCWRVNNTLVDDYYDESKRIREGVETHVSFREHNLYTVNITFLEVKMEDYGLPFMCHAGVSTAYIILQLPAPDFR
test_method_notes: BLI (ForteBio Octet), antibody on ProA sensor, 1:1 model
pKd: −log10 of the molar value.

- binder: "hz84C4-1.5 (antibody, human IgG4 S228P, kappa, V domains shown, Humanized, human IgG4 / kappa) VH: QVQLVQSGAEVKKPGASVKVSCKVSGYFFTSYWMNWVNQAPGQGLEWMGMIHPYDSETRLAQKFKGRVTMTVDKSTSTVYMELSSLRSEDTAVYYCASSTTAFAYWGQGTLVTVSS VL: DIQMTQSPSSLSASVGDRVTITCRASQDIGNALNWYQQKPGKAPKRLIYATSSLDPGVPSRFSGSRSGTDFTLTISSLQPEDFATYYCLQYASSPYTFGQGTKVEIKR"
  pKd: 8.87

Reference source: patent US20240270857A1
